Catalogue of Papp at 10 h, 100 ug/ml values
# Test Protocol: Permeability of the compound in PBS/EtOH at 100 ug/ml after 10 hrs by PAMPA-BBB assay
# Assay type: ADME
# Study Conditions: read-out: permeability
Recorded Endpoint: Papp at 10 h, 100 ug/ml

- Compound Structure: "FC(F)(F)c1ccc2nc(-c3cccc(N4CCc5ccccc5C4)c3)[nH]c2c1"
  Recorded Endpoint: "Papp at 10 h, 100 ug/ml"
  Result: "8.7 ×10⁻⁶ cm/s"
- Compound Structure: "COc1ccc2nc(-c3cccc(N4CCc5ccccc5C4)c3)[nH]c2c1"
  Recorded Endpoint: "Papp at 10 h, 100 ug/ml"
  Result: "5.6 ×10⁻⁶ cm/s"
- Compound Structure: "Clc1ccc2nc(-c3cccc(N4CCc5ccccc5C4)c3)[nH]c2c1"
  Recorded Endpoint: "Papp at 10 h, 100 ug/ml"
  Result: "4.9 ×10⁻⁶ cm/s"
- Compound Structure: "Oc1ccc2nc(-c3cccc(N4CCc5ccccc5C4)n3)[nH]c2c1"
  Recorded Endpoint: "Papp at 10 h, 100 ug/ml"
  Result: "13.8 ×10⁻⁶ cm/s"
- Compound Structure: "Fc1ccc2c(c1)CCN(c1cccc(-c3nc4ccc(F)cc4[nH]3)n1)C2"
  Recorded Endpoint: "Papp at 10 h, 100 ug/ml"
  Result: "14 ×10⁻⁶ cm/s"
- Compound Structure: "Clc1ccc2nc(-c3cccc(N4CCc5ccccc5C4)n3)[nH]c2c1"
  Recorded Endpoint: "Papp at 10 h, 100 ug/ml"
  Result: "16.7 ×10⁻⁶ cm/s"
- Compound Structure: "Fc1cc2[nH]c(-c3cccc(N4CCc5ccccc5C4)c3)nc2cc1Cl"
  Recorded Endpoint: "Papp at 10 h, 100 ug/ml"
  Result: "10.1 ×10⁻⁶ cm/s"
- Compound Structure: "FC(F)(F)Oc1ccc2nc(-c3cccc(N4CCc5ccccc5C4)n3)[nH]c2c1"
  Recorded Endpoint: "Papp at 10 h, 100 ug/ml"
  Result: "10 ×10⁻⁶ cm/s"
- Compound Structure: "COc1ccc2c(c1)CCN(c1cccc(-c3nc4ccc(OC)cc4[nH]3)c1)C2"
  Recorded Endpoint: "Papp at 10 h, 100 ug/ml"
  Result: "7.6 ×10⁻⁶ cm/s"
- Compound Structure: "Fc1ccc2nc(-c3cccc(N4CCc5ccccc5C4)n3)[nH]c2c1"
  Recorded Endpoint: "Papp at 10 h, 100 ug/ml"
  Result: "14.5 ×10⁻⁶ cm/s"
- Compound Structure: "COc1ccc2nc(-c3cccc(N4CCc5ccccc5C4)n3)[nH]c2c1"
  Recorded Endpoint: "Papp at 10 h, 100 ug/ml"
  Result: "16.8 ×10⁻⁶ cm/s"

====

Catalogue of pIC50 values
# Test system: BV-2
# Test Protocol: Antineuroinflammatory activity in mouse BV2 cells assessed as inhibition of LPS-induced nitric oxide production pretreated for 30 mins followed by LPS-stimulation for 24 hrs by Griess assay
# Type: functional, cell-based
pIC50: −log10 of the molar value.
Recorded Endpoint: pIC50

- Compound Structure: "Fc1cc2nc(-c3cccc(N4CCc5ccccc5C4)n3)[nH]c2cc1F"
  Censoring Operator: "="
  Numeric Readout: 5.18
- Compound Structure: "Oc1ccc2nc(-c3cccc(N4CCc5ccccc5C4)c3)[nH]c2c1"
  Censoring Operator: "="
  Numeric Readout: 5.23
- Compound Structure: "Clc1cc2nc(-c3cccc(N4CCc5ccccc5C4)c3)[nH]c2cc1Cl"
  Censoring Operator: "="
  Numeric Readout: 5.10
- Compound Structure: "Nc1cccc2nc(-c3cccc(N4CCc5ccccc5C4)c3)[nH]c12"
  Censoring Operator: "<"
  Numeric Readout: 5.00
- Compound Structure: "Fc1ccc2nc(-c3cccc(N4CCc5ccccc5C4)c3)[nH]c2c1"
  Censoring Operator: "="
  Numeric Readout: 5.27
- Compound Structure: "Fc1ccc2nc(-c3cccc(N4CCc5ccccc5C4)n3)[nH]c2c1"
  Censoring Operator: "="
  Numeric Readout: 5.24
- Compound Structure: "FC(F)(F)Oc1ccc2nc(-c3cccc(N4CCc5ccccc5C4)n3)[nH]c2c1"
  Censoring Operator: "="
  Numeric Readout: 5.01
- Compound Structure: "Fc1cc2[nH]c(-c3cccc(N4CCc5ccccc5C4)c3)nc2cc1Cl"
  Censoring Operator: "<"
  Numeric Readout: 5.00
- Compound Structure: "Oc1ccc2nc(-c3cccc(N4CCc5ccccc5C4)n3)[nH]c2c1"
  Censoring Operator: "="
  Numeric Readout: 5.42
- Compound Structure: "COc1ccc2c(c1)CCN(c1cccc(-c3nc4ccc(OC)cc4[nH]3)n1)C2"
  Censoring Operator: "<"
  Numeric Readout: 5.00
- Compound Structure: "COc1ccc2nc(-c3cccc(N4CCc5ccccc5C4)n3)[nH]c2c1"
  Censoring Operator: "="
  Numeric Readout: 5.29
- Compound Structure: "FC(F)(F)c1ccc2nc(-c3cccc(N4CCc5ccccc5C4)c3)[nH]c2c1"
  Censoring Operator: "="
  Numeric Readout: 5.11
- Compound Structure: "CC(C)(C)c1ccc2nc(-c3cccc(N4CCc5ccccc5C4)n3)[nH]c2c1"
  Censoring Operator: "<"
  Numeric Readout: 5.00
- Compound Structure: "c1cc(-c2nc3ccccc3[nH]2)nc(N2CCc3ccccc3C2)c1"
  Censoring Operator: "="
  Numeric Readout: 5.13
- Compound Structure: "Clc1ccc2nc(-c3cccc(N4CCc5ccccc5C4)c3)[nH]c2c1"
  Censoring Operator: "<"
  Numeric Readout: 5.00
- Compound Structure: "COc1ccc2nc(-c3cccc(N4CCc5ccccc5C4)c3)[nH]c2c1"
  Censoring Operator: "="
  Numeric Readout: 5.08
- Compound Structure: "Cc1ccc2nc(-c3cccc(N4CCc5ccccc5C4)c3)[nH]c2c1"
  Censoring Operator: "="
  Numeric Readout: 5.24
- Compound Structure: "COc1ccc2c(c1)CCN(c1cccc(-c3nc4ccc(OC)cc4[nH]3)c1)C2"
  Censoring Operator: "<"
  Numeric Readout: 5.00
- Compound Structure: "FC(F)(F)c1ccc2nc(-c3cccc(N4CCc5ccccc5C4)n3)[nH]c2c1"
  Censoring Operator: "="
  Numeric Readout: 5.03
- Compound Structure: "Fc1ccc2c(c1)CCN(c1cccc(-c3nc4ccc(F)cc4[nH]3)n1)C2"
  Censoring Operator: "="
  Numeric Readout: 5.19
- Compound Structure: "Clc1ccc2nc(-c3cccc(N4CCc5ccccc5C4)n3)[nH]c2c1"
  Censoring Operator: "="
  Numeric Readout: 5.16
- Compound Structure: "c1cc(-c2nc3ccccc3[nH]2)cc(N2CCc3ccccc3C2)c1"
  Censoring Operator: "="
  Numeric Readout: 5.22
